src = ChEMBL document CHEMBL1151043

- System: Klebsiella
- ASSAY PROTOCOL: In vitro antibacterial activity against Klebsiella relative to thienamycin
- Type: functional
RECORDED ENDPOINT: Relative potency
Numbers only.

Answered cases to consult:
Ask: Using the record for `C[C@@H](O)[C@H]1C(=O)N2C(C(=O)[O-])=C(c3ccc(C[n+]4ccc(CS(=O)(=O)[O-])cc4)cc3)C[C@H]12.[K+]` , report its Relative potency.
Reply: 1.6

Ask: Using the record for `C[C@@H](O)[C@H]1C(=O)N2C(C(=O)[O-])=C(c3ccc(C[n+]4ccc(CCS(=O)(=O)[O-])cc4)cc3)C[C@H]12.[K+]` , report its Relative potency.
Reply: 1.1

Ask: Using the record for `C[C@@H](O)[C@H]1C(=O)N2C(C(=O)[O-])=C(c3ccc(C[n+]4ccc5ccccc5c4)cc3)C[C@H]12` , report its Relative potency.
Reply: 2

Continue with the next compound.
Ask: Using the record for `C[C@@H](O)[C@H]1C(=O)N2C(C(=O)O)=C(c3ccc(CN4CCSCC4)cc3)C[C@H]12` , report its Relative potency.
Reply: 1.3
